Organism: Rattus norvegicus
PROTOCOL SUMMARY: DrugMatrix - Regimen: Daily Repeat
Type: toxicity, organism-based, Sprague-Dawley
Design: regimen Daily Repeat, gender Male, age 6-8 weeks
MEASUREMENT PARAMETERS: in vivo, po, 0 mg/kg, 72 h, tissue Blood, route oral GAVAGE, dose level Control, time 3 day, […]
EXPERIMENTAL ENDPOINT: LEUKOCYTE COUNT (x10E3/uL)
Unit x10E3/uL implied. Number only.

CCCCC(=O)N(Cc1ccc(-c2ccccc2-c2nnn[nH]2)cc1)[C@H](C(=O)O)C(C)C
10.65
c1ccoc1 [FURAN]
10.15

Measured LEUKOCYTE COUNT of CC(=O)Oc1ccccc1C(=O)O [ASPIRIN] : 6.95

LEUKOCYTE COUNT reported for this molecule CS(=O)(=O)Nc1ccc([N+](=O)[O-])cc1Oc1ccccc1 [NIMESULIDE] : 8.7

###

ASPARTATE AMINOTRANSFERASE by entry:
Species: Rattus norvegicus
PROTOCOL SUMMARY: DrugMatrix - Regimen: Daily Repeat
Assay type: toxicity, organism-based, Sprague-Dawley
Set-up: regimen Daily Repeat, gender Male, age 6-8 weeks
MEASUREMENT PARAMETERS: in vivo, po, 0 mg/kg, 72 h, tissue Plasma, route oral GAVAGE, dose level Control, time 3 day, vehicle 100 % WATER
Quick reminder: number only, in u/L, skip the unit.

Solved cases below.
CCN(CC)CCNC(=O)c1ccc(N)cc1 [PROCAINAMIDE]
67.33
NC12CC3CC(CC(C3)C1)C2
106.17
NC(=O)c1cccnc1 [NIACINAMIDE]
92.33
CN(C)C(=O)Oc1cccc([N+](C)(C)C)c1.[Br-] [NEOSTIGMINE BROMIDE]
84

Item: `CN(C)CCC=C1c2ccccc2CCc2ccccc21` | ASPARTATE AMINOTRANSFERASE: 106.17

ASPARTATE AMINOTRANSFERASE reported for this molecule O=c1[nH]c(=O)n(C2CCCO2)cc1F (stereo unspecified) : 82.17

###

Species on record: Rattus norvegicus
PROTOCOL SUMMARY: DrugMatrix - Regimen: Daily Repeat
Assay type: toxicity, organism-based, Sprague-Dawley
Parameters: regimen Daily Repeat, gender Male, age 6-8 weeks
MEASUREMENT PARAMETERS: in vivo, po, 0 mg/kg, 72 h, tissue Plasma, route oral GAVAGE, dose level Control, time 3 day, vehicle 100 % WATER
Collected CREATINE PHOSPHOKINASE values appear next to each entry.
Record the result as a number with its unit.

Below, each entry is followed by its recorded CREATINE PHOSPHOKINASE result.
NC(=O)c1cccnc1 [NIACINAMIDE]
472.83 u/L
CCN(CC)CCOC(=O)C1(C2CCCCC2)CCCCC1
139.5 u/L
CCN(C(C)=O)c1cccc(-c2ccnc3c(C#N)cnn23)c1
601.83 u/L
CNC1=Nc2ccc(Cl)cc2C(c2ccccc2)=[N+]([O-])C1 [CHLORDIAZEPOXIDE]
503 u/L
O=c1[nH]c(=O)n(C2CCCO2)cc1F (stereo unspecified)
272.17 u/L
C#Cc1cccc(Nc2ncnc3cc(OCCOC)c(OCCOC)cc23)c1
392.83 u/L

Documented CREATINE PHOSPHOKINASE of CCN(CC)CCNC(=O)c1ccc(N)cc1 [PROCAINAMIDE] : 123.33 u/L

Recorded CREATINE PHOSPHOKINASE (compound CCCC(C)C1(CC)C(=O)NC(=O)NC1=O (stereo unspecified) ): 576.83 u/L

The compound listed as `NC12CC3CC(CC(C3)C1)C2` has a reported CREATINE PHOSPHOKINASE of 601.83 u/L

// recorded CREATINE PHOSPHOKINASE for `CN(C)CCC=C1c2ccccc2CCc2ccccc21` : 601.83 u/L

In plain terms, CN(C)C(=O)Oc1cccc([N+](C)(C)C)c1.[Br-] [NEOSTIGMINE BROMIDE] has a documented CREATINE PHOSPHOKINASE of 576.83 u/L

###

Species on record: Rattus norvegicus
PROTOCOL SUMMARY: DrugMatrix - Regimen: Daily Repeat
Format: toxicity, organism-based, Sprague-Dawley
Design: regimen Daily Repeat, gender Male, age 6-8 weeks
MEASUREMENT PARAMETERS: in vivo, po, 0 mg/kg, 120 h, tissue Blood, route oral GAVAGE, dose level Control, time 5 day, vehicle 100 % WATER
The threshold is inclusive: LEUKOCYTE COUNT of exactly 10 x10E3/uL counts as satisfied; values below receive not satisfied.

Solved entries:
CN(C)CCC=C1c2ccccc2CCc2ccccc21 [AMITRIPTYLINE]
satisfied
CCN(CC)CCOC(=O)C1(C2CCCCC2)CCCCC1 [DICYCLOMINE]
satisfied
O=c1[nH]c(=O)n(C2CCCO2)cc1F (stereo unspecified) [TEGAFUR]
satisfied
CNC1=Nc2ccc(Cl)cc2C(c2ccccc2)=[N+]([O-])C1 [CHLORDIAZEPOXIDE]
satisfied

Turning now to a further compound:
hey, is LEUKOCYTE COUNT for this one >= 10 x10E3/uL? CCCC(C)C1(CC)C(=O)NC(=O)NC1=O (stereo unspecified) [PENTOBARBITAL]
not satisfied

###

Species on record: Rattus norvegicus
PROTOCOL SUMMARY: DrugMatrix - Regimen: Daily Repeat
Format: toxicity, organism-based, Sprague-Dawley
Parameters: regimen Daily Repeat, gender Male, age 6-8 weeks
MEASUREMENT PARAMETERS: in vivo, iv, 0 mg/kg, 72 h, tissue Blood, dose level Control, time 3 day, vehicle 100 % SALINE
// values below are reported ABSOLUTE MONOCYTE
Please reply with the bare figure in CELLS/uL and do not write the unit itself.

O=c1[nH]c(=O)n([C@H]2C[C@H](O)[C@@H](CO)O2)cc1F [FLOXURIDINE]
159
O=C(O)P(=O)(O)O [FOSCARNET]
307.67

The reported value for N=C(N)c1ccc(OCCCCCOc2ccc(C(=N)N)cc2)cc1 [PENTAMIDINE] in terms of ABSOLUTE MONOCYTE is 389.33

ABSOLUTE MONOCYTE for COc1cccc2c1C(=O)c1c(O)c3c(c(O)c1C2=O)C[C@@](O)(C(C)=O)C[C@@H]3O[C@H]1C[C@H](N)[C@H](O)[C@H](C)O1 [DAUNORUBICIN] is 165.83

// ABSOLUTE MONOCYTE lookup, compound = C[N+](C)(C)CCOC(=O)CCC(=O)OCC[N+](C)(C)C.[Cl-].[Cl-] [SUCCINYLCHOLINE CHLORIDE] , result: 389.33

###

Organism: Rattus norvegicus
Type: toxicity, organism-based, Sprague-Dawley
MEASUREMENT PARAMETERS: in vivo, po, 0 mg/kg, 24 h, vehicle control, tissue Blood, route oral GAVAGE, dose level Control, time 1 day, vehicle 100 % SALINE
Description: DrugMatrix - Regimen: Single
EXPERIMENTAL ENDPOINT: ABSOLUTE EOSINOPHIL (CELLS/uL)
Expressed in CELLS/uL, but write only the number.

# ABSOLUTE EOSINOPHIL (compound: CN(C)C=O [DIMETHYLFORMAMIDE] ) is 0

###

Measured MEAN CORPUSCULAR VOLUME values are reported for all entries that follow.
Organism: Rattus norvegicus
PROTOCOL SUMMARY: DrugMatrix - Regimen: Daily Repeat
Format: toxicity, organism-based, Sprague-Dawley
Design: regimen Daily Repeat, gender Male, age 6-8 weeks
MEASUREMENT PARAMETERS: in vivo, iv, 0 mg/kg, 120 h, tissue Blood, dose level Control, time 5 day, vehicle 100 % SALINE

O=c1[nH]c(=O)n([C@H]2C[C@H](O)[C@@H](CO)O2)cc1F
62.17 fL
C[N+](C)(C)CCOC(=O)CCC(=O)OCC[N+](C)(C)C.[Cl-].[Cl-] [SUCCINYLCHOLINE CHLORIDE]
62.6 fL
COc1cccc2c1C(=O)c1c(O)c3c(c(O)c1C2=O)C[C@@](O)(C(C)=O)C[C@@H]3O[C@H]1C[C@H](N)[C@H](O)[C@H](C)O1
63.08 fL
O=C(O)P(=O)(O)O
64.33 fL

Attention now shifts to the item below.
The reported MEAN CORPUSCULAR VOLUME of the molecule `N=C(N)c1ccc(OCCCCCOc2ccc(C(=N)N)cc2)cc1` was 62.6 fL

###

Listed compounds paired with reported TOTAL PROTEIN
Species on record: Rattus norvegicus
PROTOCOL SUMMARY: DrugMatrix - Regimen: Daily Repeat
Assay type: toxicity, organism-based, Sprague-Dawley
Parameters: regimen Daily Repeat, gender Male, age 6-8 weeks
MEASUREMENT PARAMETERS: in vivo, po, 0 mg/kg, 120 h, tissue Plasma, route oral GAVAGE, dose level Control, time 5 day, […]
Entry rule: numbers only, all in G/DL.

CCCCC(=O)N(Cc1ccc(-c2ccccc2-c2nnn[nH]2)cc1)[C@H](C(=O)O)C(C)C
5.72
CC(C)c1c(C(=O)Nc2ccccc2)c(-c2ccccc2)c(-c2ccc(F)cc2)n1CC[C@@H](O)C[C@@H](O)CC(=O)O
5.67
O=c1c(-c2ccc(O)cc2)coc2cc(O)cc(O)c12
5.67
c1ccoc1
6.15
CS(=O)(=O)Nc1ccc([N+](=O)[O-])cc1Oc1ccccc1 [NIMESULIDE]
5.87
CCc1ccc(CCOc2ccc(CC3SC(=O)NC3=O)cc2)nc1 (configuration not stated)
6.53

The compound listed as `CC(=O)Oc1ccccc1C(=O)O` shows TOTAL PROTEIN equal to 6.05
